assay: Inhibitory activity against Alpha-mannosidase (Jack bean); parameters: species or system Canavalia ensiformis
pIC50: −log10 of the molar value.
Reported pIC50 values are given for each entry in this list.

smiles-data	pIC50
N[C@H]1[C@@H](O)[C@@H](O)[C@@H](O)[C@@H]1S	4.44
CS[C@@H]1[C@@H](N)[C@@H](O)[C@@H](O)[C@H]1O	6.46
CO[C@@H]1[C@@H](N)[C@@H](O)[C@@H](O)[C@H]1O	6.80
CCS[C@@H]1[C@@H](N)[C@@H](O)[C@@H](O)[C@H]1O	5.30
N[C@@H]1C[C@H](O)[C@H](O)[C@@H]1O	4.96
